Taken from patent US20220064286A1.

Parameter: Kd. Scope: all listed entries.
Target: T1, human TIGIT protein (human, UniProt Q495A1 22-141, limits assumed)
T1 construct: Recombinant protein (Genentech) used in ELISA screening and as SPR analyte; also called TIGIT antigen
T1 sequence: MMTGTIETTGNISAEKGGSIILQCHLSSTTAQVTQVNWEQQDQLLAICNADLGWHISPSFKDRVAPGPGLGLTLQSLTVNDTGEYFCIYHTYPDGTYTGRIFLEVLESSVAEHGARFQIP
Experiment: SPR, captured mAb
MEASURE NAME: Kd

[[record]]
binder = "h15C8.L1H4 (antibody, V domains shown, VH: I48M against h15C8.L1H1; FR/HVR pieces) VH: EVQLVQSGAEVKKPGASVKVSCKASGYTFTEHSIYWLRQAPGQRLEIMGRIDPKNGRTYFVDKFKNRATLTTDTSASTAYMELSSLRSEDTAVYFCARIDGFYFDFWGQGTLVTVSS VL: DIQLTQSPSFLSASVGDRVTITCKGSQNVNKYLVWYQQKPGKAPKLLIYSTDNLQSGIPSRFSGSGSGTEYTLTISSLQPEDFATYFCYQYNNGFTFGQGTKVEIK"
result = "0.59 nM"

[[record]]
binder = "h15C8.L2H1 (antibody, V domains shown, VL: I58V against h15C8.L1H1; FR/HVR pieces) VH: EVQLVQSGAEVKKPGASVKVSCKASGYTFTEHSIYWLRQAPGQRLEIIGRIDPKNGRTYFVDKFKNRATLTTDTSASTAYMELSSLRSEDTAVYFCARIDGFYFDFWGQGTLVTVSS VL: DIQLTQSPSFLSASVGDRVTITCKGSQNVNKYLVWYQQKPGKAPKLLIYSTDNLQSGVPSRFSGSGSGTEYTLTISSLQPEDFATYFCYQYNNGFTFGQGTKVEIK"
result = "0.66 nM"

[[record]]
binder = "h6B2.L1H1 (antibody, V domains shown, Humanized; FR/HVR pieces in order; also called h1.6B2.L1H1) VH: EVTLKESGPALVKPTQTLTLTCTFSGFSLSTYGMGVSWIRQPPGKALEWLASIWWNGNTYYNPSLKSRLTVTKDASKNQAVLTMTNMDPVDTATYYCAHTGGAVITWFAYWGQGTLVTVSS VL: DIQMTQSPSSLSASVGDRVTITCKASQSVGKNIAWYQQKPGKSPKLLIYYASNRYTGVPSRFSGSGSGTDFTFTISSLQPEDIATYYCQHIYNSPYPFGQGTKVEIK"
result = "0.54 nM"

